Measured pIC50 by item
- Assayed target: human SOS1 (loading of human K-Ras^G12C-GDP with fluorescent GTP-analog) (Homo sapiens)
- Measurement notes: Biochemical assay 3: K-Ras^G12C activation assay by hSOS1 (HTRF)
- Conditions: no GTP; read-out: Assay 3 (KRAS-Activation by SOS no GTP) activity expressed as IC50
Note on units: pIC50 is unitless, being -log10 of a concentration expressed in mol/L.

// known answers, use as guide
Compound: COCCNC(=O)CNCc1ccccc1-c1ccc(C(C)Nc2nc(C)nc3cc(OC)c(OC)cc23)s1 (centres unmarked) [Example 283]
Assayed target: human SOS1 (loading of human K-Ras^G12C-GDP with fluorescent GTP-analog) (Homo sapiens)
pIC50: 6.46

Compound: COc1cc2nc(C)nc(N[C@H](C)c3cccc(-c4ccn[nH]4)c3)c2cc1OC [Example 75]
Assayed target: human SOS1 (loading of human K-Ras^G12C-GDP with fluorescent GTP-analog) (Homo sapiens)
pIC50: 6.00

Compound: Cc1nc(N[C@H](C)c2ccc(F)cc2)c2cc(N=S(C)(C)=O)ccc2n1 [Example 32]
Assayed target: human SOS1 (loading of human K-Ras^G12C-GDP with fluorescent GTP-analog) (Homo sapiens)
pIC50: 5.59

Problem: So what's the measured pIC50 for this one? COc1cc2nc(C)nc(N[C@H](C)c3ccc(-c4ccccc4)cc3)c2cc1OC [Example 196]
Solution: 5.21

Problem: So what's the measured pIC50 for this one? COc1cc2nc(C)nc(NC(C)c3ccc(-c4ccccc4CNCc4ccccc4)s3)c2cc1OC (centres unmarked) [Example 365]
Solution: 6.45

Problem: So what's the measured pIC50 for this one? COc1cc2nc(C)nc(NC(C)c3ccc(-c4ccccc4CNCC(=O)NCc4ccccc4)s3)c2cc1OC (centres unmarked) [Example 284]
Solution: 6.05

Problem: So what's the measured pIC50 for this one? COc1cc2nc(C)nc(N[C@H](C)c3cccc(-c4ccccc4OC(F)(F)F)c3)c2cc1OC [Example 83]
Solution: 4.76

Problem: So what's the measured pIC50 for this one? CCCCOc1cc2c(N[C@H](C)c3cccc(-c4cn[nH]c4)c3)nc(C)nc2cc1OC [Example 350]
Solution: 6.07

* * *

- Assayed target: human SOS1 (loading of human K-Ras^G12C-GDP with fluorescent GTP-analog) (Homo sapiens)
- Measurement notes: Biochemical assay 3: K-Ras^G12C activation assay by hSOS1 (HTRF)
- Conditions: no GTP; read-out: Assay 3 (KRAS-Activation by SOS no GTP) activity expressed as IC50
Measured IC50 by item
Provide the reading as a plain figure in µM.

// known answers, use as guide
Compound: COc1cc2nc(C)nc(N[C@H](C)c3cccc(-n4cccn4)c3)c2cc1OC
Units text: µM
Result number: 12.2
//
Compound: COc1cc2nc(C)nc(N[C@@H](C)c3ccc(-c4ccccc4OC(F)(F)F)s3)c2cc1OC (racemic)
Units text: µM
Result number: 13.2
//
Compound: COc1cc2nc(C)nc(N[C@@H](C)c3ccc(-c4ccc5[nH]ccc5c4)s3)c2cc1OC (racemic)
Units text: µM
Result number: 11.1
//
Compound: COc1cc2nc(C)nc(N[C@H](C)c3cccc(-c4cc(N)ccc4C)c3)c2cc1OC
Units text: µM
Result number: 0.696
//
Compound: COc1cc2nc(C)nc(NC(C)c3ccc(-c4ccccc4CNCC(F)F)s3)c2cc1OC (centres unmarked)
Units text: µM
Result number: 1.28

Problem: So what's the measured IC50 for this one? COc1cc2nc(C)nc(NC(C)c3ccc(-c4ccccc4CN(C)C)s3)c2cc1OC (centres unmarked)
Solution: 0.0511

Problem: So what's the measured IC50 for this one? COc1cc2nc(C)nc(NC(C)c3cccc4ccsc34)c2cc1OC (centres unmarked)
Solution: 0.324

Problem: So what's the measured IC50 for this one? COc1cc2nc(C)nc(NC(C)c3ccc(-c4ccccc4CCNC(=O)OC(C)(C)C)s3)c2cc1OC (centres unmarked)
Solution: 18.2
